The reported numbers originate from patent US8912209B2.

- method-summary: Stability assay in rat plasma
- Assay type: in vitro ADME
- measurement-setup: 1 μM in rat plasma, LC-MS/MS; read-out: t½ rat plasma
half-life at 1 μM for assorted compounds
Provide the reading as a plain figure in min.

CCSC(=O)c1cccc(-c2cc(C(=O)Nc3ccncc3)ccc2CN)c1 [Compound 97] : 38
CC(N)c1ccc(C(=O)Nc2ccncc2F)cc1-c1cccc(C(=O)OCC2CCCO2)c1 (stereo not shown) [Compound 46] : 5.8

# next compound below
Exercise: For the compound CC(N)c1ccc(C(=O)Nc2ccncc2F)cc1-c1cccc(C(=O)OCC2CCCCO2)c1 (stereo not shown) [Compound 47] , report half-life at 1 μM.
Solution: 4.5

---

Recorded pIC50 for the following molecules
- subject-of-test: ROCKα/ROCKII (Homo sapiens, UniProt O75116)
- Construct: purchased Upstate Biotechnology 14-451
- method-summary: ROCK inhibition, Method 2 fluorescence polarization (FP) assay, ROCK IMAP Kit
- Assay type: biochemical
- measurement-setup: 10 μM ATP, read-out: IC50 Meth. 2
pIC50: −log10 of the molar value.

CC(N)c1ccc(C(=O)Nc2ccncc2)cc1-c1cccc(C(=O)OCc2ccoc2)c1 (centres unmarked) : 6.00 to 7.00
CCCCCCCCCCCCCOC(=O)c1cccc(-c2cc(C(=O)Nc3ccncc3)ccc2C(C)N)c1 (centres unmarked) : 5.00 to 6.00
COC(=O)c1cccc(-c2cc(C(=O)Nc3ccncc3)ccc2C(C)N)c1 (centres unmarked) : > 7.00
CC(N)c1ccc(C(=O)Nc2ccncc2)cc1-c1cccc(C(=O)Oc2ccccc2)c1 (centres unmarked) : > 7.00
CCCOC(=O)c1cccc(-c2cc(C(=O)Nc3ccncc3F)ccc2C(C)N)c1 (centres unmarked) : > 7.00
COc1cc(OC)cc(OC(=O)c2cccc(-c3cc(C(=O)Nc4ccncc4F)ccc3C(C)N)c2)c1 (centres unmarked) : 6.00 to 7.00
CCOC(=O)CSCC(=O)Nc1cccc(-c2cc(C(=O)Nc3ccncc3)ccc2C(C)N)c1 (centres unmarked) : > 7.00

Exercise: For the molecule CCCCCCCOC(=O)c1cccc(-c2cc(C(=O)Nc3ccncc3)ccc2C(C)N)c1 (centres unmarked) , give its measured pIC50 value.
Solution: 6.00 to 7.00

---

What follows is a collection of IC50 values obtained with ROCK II (Homo sapiens, UniProt O75116).
Sequence (O75116 whole entry): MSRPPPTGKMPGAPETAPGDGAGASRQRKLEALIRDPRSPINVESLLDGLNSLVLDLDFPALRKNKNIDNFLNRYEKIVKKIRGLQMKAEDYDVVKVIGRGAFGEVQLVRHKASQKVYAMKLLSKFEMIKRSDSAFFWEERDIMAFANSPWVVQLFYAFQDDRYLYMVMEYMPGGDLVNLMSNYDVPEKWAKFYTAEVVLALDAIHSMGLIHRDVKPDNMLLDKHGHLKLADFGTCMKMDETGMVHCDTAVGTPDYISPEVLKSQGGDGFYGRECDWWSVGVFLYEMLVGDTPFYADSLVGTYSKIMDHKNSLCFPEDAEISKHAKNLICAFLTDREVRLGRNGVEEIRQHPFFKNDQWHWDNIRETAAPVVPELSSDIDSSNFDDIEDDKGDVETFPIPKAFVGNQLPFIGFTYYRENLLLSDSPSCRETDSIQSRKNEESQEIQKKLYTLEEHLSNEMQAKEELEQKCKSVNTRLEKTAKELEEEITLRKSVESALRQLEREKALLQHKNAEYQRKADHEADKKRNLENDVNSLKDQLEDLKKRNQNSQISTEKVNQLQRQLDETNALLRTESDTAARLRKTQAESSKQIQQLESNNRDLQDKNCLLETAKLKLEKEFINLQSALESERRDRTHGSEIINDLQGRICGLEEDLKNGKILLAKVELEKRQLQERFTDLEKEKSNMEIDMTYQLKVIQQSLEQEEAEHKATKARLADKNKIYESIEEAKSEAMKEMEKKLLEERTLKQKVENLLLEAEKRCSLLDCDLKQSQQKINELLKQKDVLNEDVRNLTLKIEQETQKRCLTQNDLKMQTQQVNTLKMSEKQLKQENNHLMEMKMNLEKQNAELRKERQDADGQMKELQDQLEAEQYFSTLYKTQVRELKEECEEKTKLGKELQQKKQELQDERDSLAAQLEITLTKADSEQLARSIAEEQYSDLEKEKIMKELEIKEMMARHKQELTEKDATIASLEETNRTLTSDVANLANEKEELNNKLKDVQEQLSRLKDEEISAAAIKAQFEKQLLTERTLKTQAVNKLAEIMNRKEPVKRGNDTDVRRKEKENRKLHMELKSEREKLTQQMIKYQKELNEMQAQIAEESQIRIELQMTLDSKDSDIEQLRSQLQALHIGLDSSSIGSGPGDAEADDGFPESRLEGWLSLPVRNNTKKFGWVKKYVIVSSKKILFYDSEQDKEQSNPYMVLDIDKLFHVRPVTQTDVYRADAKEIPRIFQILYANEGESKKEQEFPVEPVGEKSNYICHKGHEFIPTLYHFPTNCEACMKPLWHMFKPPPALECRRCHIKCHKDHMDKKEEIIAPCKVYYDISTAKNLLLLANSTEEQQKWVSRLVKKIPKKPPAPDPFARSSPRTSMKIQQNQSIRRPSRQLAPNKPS

// worked examples, IC50 included
CCCOC(=O)c1cc(-c2cc(C(=O)Nc3ccncc3)ccc2C(C)N)c[nH]1 (centres unmarked) : < 100 nM
NCc1ccc(C(=O)Nc2ccncc2F)cc1-c1cccc(OCC(=O)OCc2ccccc2)c1 : 1000 to 10000 nM
NCc1ccc(C(=O)Nc2ccncc2)cc1-c1cccc(C(=O)OC2CCCC2)c1 : 100 to 1000 nM
COC(=O)C1CCN(C(=O)c2cccc(-c3cc(C(=O)Nc4ccncc4)ccc3CN)c2)CC1 : 1000 to 10000 nM
COC(=O)C1CCN(C(=O)c2cccc(-c3cc(C(=O)Nc4ccncc4)ccc3CN)c2)C1 (centres unmarked) : 1000 to 10000 nM

Exercise: Name the recorded IC50 of the compound listed here: `CC(C)OC(=O)c1cccc(-c2cc(C(=O)Nc3ccncc3)ccc2CN)c1`
Solution: 100 to 1000 nM

Exercise: Consider the compound `COC(=O)CNC(=O)COc1cccc(-c2cc(C(=O)Nc3ccncc3)ccc2CN)c1` and give its recorded IC50.
Solution: < 100 nM

Exercise: Write down IC50 measured for item CC(N)c1ccc(C(=O)Nc2ccncc2)cc1-c1cccc(CCC(=O)Oc2ccccc2)c1 (centres unmarked)
Solution: 100 to 1000 nM

---

Measured half-life at 1 μM accompanies every entry in the list below.
- method-summary: Stability towards drug metabolizing enzymes in lung S9
- Assay type: in vitro ADME
- measurement-setup: human, lung S9 from smokers with NADPH, UDPGA, PAPS and GSH, read-out: t½ human lung S9

CC(N)c1ccc(C(=O)Nc2ccncc2F)cc1-c1cccc(C(=O)OCC2CCCCO2)c1 (stereo not drawn) [Compound 47] : > 60 min
CC(N)c1ccc(C(=O)Nc2ccncc2F)cc1-c1cccc(C(=O)OCC2CCCO2)c1 (stereo not drawn) [Compound 46] : 53 min

Exercise: Fill in reported half-life at 1 μM for this entry: CC(N)c1ccc(C(=O)Nc2ccncc2)cc1-c1cccc(C(=O)OCCO)c1 (stereo not drawn) [Compound 65]
Solution: > 60 min

---

- subject-of-test: ROCKα/ROCKII (Homo sapiens)
- method-summary: ROCK inhibition, Method 2 fluorescence polarization (FP) assay, ROCK IMAP Kit
- measurement-setup: 10 μM ATP, read-out: IC50 Meth. 2
pIC50: −log10 of the molar value.
Listing of recorded pIC50 by entry.

Exercise: Give the reported value of pIC50 for this record: CC(N)c1ccc(C(=O)Nc2ccncc2F)cc1-c1cccc(C(=O)OCC2CCCCO2)c1 (stereo not shown)
Solution: > 7.00

Exercise: Check the records and state pIC50 for CC(N)c1ccc(C(=O)Nc2ccncc2F)cc1-c1cccc(OCCSC2CCOC2=O)c1 (stereo not shown)
Solution: 6.00 to 7.00

Exercise: Determine from records and report pIC50 for CC(N)c1ccc(C(=O)Nc2ccncc2)cc1-c1cccc(C(=O)OCC(=O)c2ccc(Br)cc2)c1 (stereo not shown)
Solution: > 7.00

Exercise: Give the reported pIC50 for this compound. CC(N)c1ccc(C(=O)Nc2ccncc2)cc1-c1cccc(C(=O)OCC2CCCO2)c1 (stereo not shown)
Solution: > 7.00

---

- subject-of-test: ROCKα/ROCKII (Homo sapiens)
- method-summary: ROCK inhibition, Method 2 fluorescence polarization (FP) assay, ROCK IMAP Kit
- measurement-setup: 10 μM ATP, read-out: IC50 Meth. 2
pIC50: −log10 of the molar value.
result-type: pIC50

Some solved entries appear below for comparison.
CC(N)c1ccc(C(=O)Nc2ccncc2)cc1-c1cccc(C(=O)OCCc2ccsc2)c1 (centres unmarked) [Compound 92] : 6.00 to 7.00
CC(N)c1ccc(C(=O)Nc2ccncc2)cc1-c1cccc(C(=O)OCC2CC2)c1 (centres unmarked) [Compound 36] : > 7.00
CC(N)c1ccc(C(=O)Nc2ccncc2)cc1-c1cccc(C(=O)NC2CCSC2=O)c1 (centres unmarked) [Compound 112] : > 7.00
CCCCCOC(=O)c1cccc(-c2cc(C(=O)Nc3ccncc3)ccc2C(C)N)c1 (centres unmarked) [Compound 16] : 6.00 to 7.00
CCCCOC(=O)c1cccc(-c2cc(C(=O)Nc3ccncc3)ccc2C(C)N)c1 (centres unmarked) [Compound 13] : > 7.00

Exercise: Jot down pIC50 (ROCKα/ROCKII (Homo sapiens)) of CC(N)c1ccc(C(=O)Nc2ccncc2)cc1-c1cccc(C(=O)OC2CCCC2)c1 (centres unmarked) [Compound 33] .
Solution: > 7.00

Exercise: State the measured pIC50 (ROCKα/ROCKII (Homo sapiens)) of NCc1ccc(C(=O)Nc2ccncc2F)cc1-c1cccc(C(=O)Oc2ccccc2)c1 [Compound 175]
Solution: > 7.00

Exercise: Write down measured pIC50 (ROCKα/ROCKII (Homo sapiens)) for this molecule. CC(N)c1ccc(C(=O)Nc2ccncc2F)cc1-c1cccc(C(=O)OCC2CC2)c1 (centres unmarked) [Compound 37]
Solution: > 7.00

Exercise: Look up and report measured pIC50 (ROCKα/ROCKII (Homo sapiens)) for the following molecule: CC(N)c1ccc(C(=O)Nc2ccncc2)cc1-c1cccc(C(=O)OCCc2ccccn2)c1 (centres unmarked) [Compound 93]
Solution: > 7.00

Exercise: Give reported pIC50 for CSc1ccc(OC(=O)c2cccc(-c3cc(C(=O)Nc4ccncc4)ccc3C(C)N)c2)cc1 (centres unmarked) [Compound 82] (ROCKα/ROCKII (Homo sapiens))
Solution: > 7.00

---

Listed here: molecules with reported pIC50 for ROCK II (Homo sapiens, UniProt O75116).
pIC50: −log10 of the molar value.

CC(N)c1ccc(C(=O)Nc2ccncc2F)cc1-c1cccc(C(=O)OCC2CCCCO2)c1 (centres unmarked) : 6.00 to 7.00
COCCOC(=O)c1cccc(-c2cc(C(=O)Nc3ccncc3)ccc2CN)c1 : 6.00 to 7.00
NCc1ccc(C(=O)Nc2ccncc2)cc1-c1cccc(C(=O)OCC2CCCCC2)c1 : 6.00 to 7.00
CC(N)c1ccc(C(=O)Nc2ccncc2)cc1-c1c[nH]c(C(=O)Oc2ccccc2)c1 (centres unmarked) : 6.00 to 7.00
COC(=O)c1ccc(-c2cc(C(=O)Nc3ccncc3)ccc2CN)cc1 : 5.00 to 6.00

Exercise: For the molecule `N#CCCOC(=O)Cc1cccc(-c2cc(C(=O)Nc3ccncc3F)ccc2CN)c1` , report pIC50.
Solution: 5.00 to 6.00

Exercise: Item CC(N)c1ccc(C(=O)Nc2ccncc2)cc1-c1cccc(OCCCSC2CCOC2=O)c1 (centres unmarked) : provide pIC50
Solution: 6.00 to 7.00

Exercise: Complete the entry with pIC50 for `NCc1ccc(C(=O)Nc2ccncc2)cc1-c1cccc(C(=O)NCC(N)=O)c1`
Solution: > 7.00

Exercise: Entry CC(C)COC(=O)c1cccc(-c2cc(C(=O)Nc3ccncc3F)ccc2C(C)N)c1 (centres unmarked) needs its pIC50 filled in; supply it.
Solution: 6.00 to 7.00

Exercise: Return reported pIC50. Input molecule: `NCc1ccc(C(=O)Nc2ccncc2)cc1-c1cccc(C(=O)Oc2ccccc2F)c1`
Solution: 6.00 to 7.00

Exercise: For the molecule `NCc1ccc(C(=O)Nc2ccncc2)cc1-c1cccc(C(=O)OCC2CCCC2)c1` , give its measured pIC50 value.
Solution: 6.00 to 7.00

Exercise: Fill in pIC50 for record COC(=O)c1cc2c(-c3cc(C(=O)Nc4ccncc4)ccc3C(C)N)cccc2[nH]1 (centres unmarked)
Solution: 6.00 to 7.00

Exercise: Quickly give me recorded pIC50 for CC(N)c1ccc(C(=O)Nc2ccncc2F)cc1-c1cccc(C(=O)OCC2CC2)c1 (centres unmarked)
Solution: 6.00 to 7.00

Exercise: Note down pIC50 recorded for CC(N)c1ccc(C(=O)Nc2ccncc2)cc1-c1cccc(C(=O)OCCF)c1 (centres unmarked)
Solution: 6.00 to 7.00
